Measured values drawn from patent US20170145113A1 for this set.

study_target: T1, His-tagged human HtrA1 protease domain (human, UniProt Q92743 161-367)
T1 construct: His-tagged protease domain; also called huHtrA1-PD-His; huHtrA1-PD
T1 sequence (Q92743 other isoform, or with tags, fused parts or gaps limits assumed): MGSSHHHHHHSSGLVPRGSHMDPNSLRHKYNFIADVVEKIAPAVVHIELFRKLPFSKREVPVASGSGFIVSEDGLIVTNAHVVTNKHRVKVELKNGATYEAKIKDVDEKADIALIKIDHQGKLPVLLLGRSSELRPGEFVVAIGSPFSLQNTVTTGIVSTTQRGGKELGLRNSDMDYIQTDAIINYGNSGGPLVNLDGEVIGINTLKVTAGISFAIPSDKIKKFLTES
assay_method_text: SPR (BIACORE T200), huHtrA1-PD-His captured by anti-His, Fab injected
assay_readout: kon (M⁻¹ s⁻¹)
Give a bare numeral; the unit M⁻¹ s⁻¹ is implied.

Look over these answered cases.
[[record]]
binder = "h15H6.v2 variant HC6 (HC-E53A) Fab (Fab, V domains shown, Fab-Flag tag fusion from 293T cells) VH: EVQLVQSGAEVKKPGASVKVSCKASGYTFTDSEMHWVRQAPGQGLEWIGGVDPATDGAAYNQKFKGRATITRDTSTSTAYLELSSLRSEDTAVYYCTRGYDYDYALDYWGQGTLVTVSS VL: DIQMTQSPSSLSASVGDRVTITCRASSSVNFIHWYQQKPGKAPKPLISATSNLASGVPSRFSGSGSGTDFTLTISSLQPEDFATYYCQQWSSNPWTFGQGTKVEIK"
value = 101000

[[record]]
binder = "h15H6.v2 variant LC9 (LC-S93I) Fab (Fab, V domains shown, Fab-Flag tag fusion from 293T cells) VH: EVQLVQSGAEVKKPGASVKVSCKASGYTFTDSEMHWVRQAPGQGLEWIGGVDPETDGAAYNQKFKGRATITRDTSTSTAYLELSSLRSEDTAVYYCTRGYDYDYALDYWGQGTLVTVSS VL: DIQMTQSPSSLSASVGDRVTITCRASSSVNFIHWYQQKPGKAPKPLISATSNLASGVPSRFSGSGSGTDFTLTISSLQPEDFATYYCQQWSINPWTFGQGTKVEIK"
value = 188000

[[record]]
binder = "h15H6.v2 variant LC3 (LC-N31E) Fab (Fab, V domains shown, Fab-Flag tag fusion from 293T cells) VH: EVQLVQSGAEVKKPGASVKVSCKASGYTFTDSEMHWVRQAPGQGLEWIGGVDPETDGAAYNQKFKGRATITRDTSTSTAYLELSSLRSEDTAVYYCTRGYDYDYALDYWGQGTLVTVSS VL: DIQMTQSPSSLSASVGDRVTITCRASSSVEFIHWYQQKPGKAPKPLISATSNLASGVPSRFSGSGSGTDFTLTISSLQPEDFATYYCQQWSSNPWTFGQGTKVEIK"
value = 270000


For the binder h15H6.v2 variant LC6 (LC-Q89H) Fab (Fab, V domains shown, Fab-Flag tag fusion from 293T cells) VH: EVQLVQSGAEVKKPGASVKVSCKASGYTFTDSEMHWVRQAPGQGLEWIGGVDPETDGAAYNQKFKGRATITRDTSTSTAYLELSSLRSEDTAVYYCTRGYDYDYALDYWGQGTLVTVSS VL: DIQMTQSPSSLSASVGDRVTITCRASSSVNFIHWYQQKPGKAPKPLISATSNLASGVPSRFSGSGSGTDFTLTISSLQPEDFATYYCHQWSSNPWTFGQGTKVEIK , give its reported kon. 390000

Identify the reported kon for the following entry. h15H6.v2 variant LC10 (LC-F32V, LC-S92K) Fab (Fab, V domains shown, Fab-Flag tag fusion from 293T cells) VH: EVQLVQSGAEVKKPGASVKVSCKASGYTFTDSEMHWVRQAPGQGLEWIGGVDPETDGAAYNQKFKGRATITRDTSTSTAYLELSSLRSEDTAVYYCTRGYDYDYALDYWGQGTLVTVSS VL: DIQMTQSPSSLSASVGDRVTITCRASSSVNVIHWYQQKPGKAPKPLISATSNLASGVPSRFSGSGSGTDFTLTISSLQPEDFATYYCQQWKSNPWTFGQGTKVEIK 253000

Please list kon recorded for the binder h15H6.v2 variant LC1 (LC-S29R) Fab (Fab, V domains shown, Fab-Flag tag fusion from 293T cells) VH: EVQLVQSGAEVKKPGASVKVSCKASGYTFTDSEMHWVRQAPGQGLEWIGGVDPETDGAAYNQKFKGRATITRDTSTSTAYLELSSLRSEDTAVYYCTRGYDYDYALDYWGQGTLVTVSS VL: DIQMTQSPSSLSASVGDRVTITCRASSRVNFIHWYQQKPGKAPKPLISATSNLASGVPSRFSGSGSGTDFTLTISSLQPEDFATYYCQQWSSNPWTFGQGTKVEIK 148000

Given the binder h15H6.v2 variant HC3 (HC-T28K) Fab (Fab, V domains shown, Fab-Flag tag fusion from 293T cells) VH: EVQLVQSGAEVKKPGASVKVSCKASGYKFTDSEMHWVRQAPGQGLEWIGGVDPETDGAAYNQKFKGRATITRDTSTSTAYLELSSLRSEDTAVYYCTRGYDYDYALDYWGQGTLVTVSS VL: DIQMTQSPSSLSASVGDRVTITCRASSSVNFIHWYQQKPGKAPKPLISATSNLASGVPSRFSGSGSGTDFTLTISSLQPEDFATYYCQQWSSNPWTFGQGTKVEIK , write its reported kon. 456000

Could you please provide reported kon for h15H6.v2 variant HC4 (HC-T28R) Fab (Fab, V domains shown, Fab-Flag tag fusion from 293T cells) VH: EVQLVQSGAEVKKPGASVKVSCKASGYRFTDSEMHWVRQAPGQGLEWIGGVDPETDGAAYNQKFKGRATITRDTSTSTAYLELSSLRSEDTAVYYCTRGYDYDYALDYWGQGTLVTVSS VL: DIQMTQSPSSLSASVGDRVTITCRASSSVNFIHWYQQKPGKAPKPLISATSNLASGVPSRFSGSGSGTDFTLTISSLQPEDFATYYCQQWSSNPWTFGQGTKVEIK ? Thanks! 331000

Look up and state reported kon for h15H6.v2 variant LC7 (LC-S92Y) Fab (Fab, V domains shown, Fab-Flag tag fusion from 293T cells) VH: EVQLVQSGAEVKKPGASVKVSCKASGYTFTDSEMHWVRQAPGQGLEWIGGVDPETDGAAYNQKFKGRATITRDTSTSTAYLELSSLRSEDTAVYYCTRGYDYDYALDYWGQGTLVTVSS VL: DIQMTQSPSSLSASVGDRVTITCRASSSVNFIHWYQQKPGKAPKPLISATSNLASGVPSRFSGSGSGTDFTLTISSLQPEDFATYYCQQWYSNPWTFGQGTKVEIK 578000

Specify kon for h15H6.v2 variant LC4 (LC-N53H) Fab (Fab, V domains shown, Fab-Flag tag fusion from 293T cells) VH: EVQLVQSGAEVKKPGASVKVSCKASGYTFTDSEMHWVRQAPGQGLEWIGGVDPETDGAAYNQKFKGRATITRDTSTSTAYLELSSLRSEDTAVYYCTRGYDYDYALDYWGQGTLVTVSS VL: DIQMTQSPSSLSASVGDRVTITCRASSSVNFIHWYQQKPGKAPKPLISATSHLASGVPSRFSGSGSGTDFTLTISSLQPEDFATYYCQQWSSNPWTFGQGTKVEIK and stop. 413000
